molecular target: TEK (human) (UniProt Q02763); assay: radiometric filter-binding kinase assay, Kinase HotSpot; conditions: compound 0.5 µM; ATP 10 µM
Sequence (Q02763 whole entry, looked up): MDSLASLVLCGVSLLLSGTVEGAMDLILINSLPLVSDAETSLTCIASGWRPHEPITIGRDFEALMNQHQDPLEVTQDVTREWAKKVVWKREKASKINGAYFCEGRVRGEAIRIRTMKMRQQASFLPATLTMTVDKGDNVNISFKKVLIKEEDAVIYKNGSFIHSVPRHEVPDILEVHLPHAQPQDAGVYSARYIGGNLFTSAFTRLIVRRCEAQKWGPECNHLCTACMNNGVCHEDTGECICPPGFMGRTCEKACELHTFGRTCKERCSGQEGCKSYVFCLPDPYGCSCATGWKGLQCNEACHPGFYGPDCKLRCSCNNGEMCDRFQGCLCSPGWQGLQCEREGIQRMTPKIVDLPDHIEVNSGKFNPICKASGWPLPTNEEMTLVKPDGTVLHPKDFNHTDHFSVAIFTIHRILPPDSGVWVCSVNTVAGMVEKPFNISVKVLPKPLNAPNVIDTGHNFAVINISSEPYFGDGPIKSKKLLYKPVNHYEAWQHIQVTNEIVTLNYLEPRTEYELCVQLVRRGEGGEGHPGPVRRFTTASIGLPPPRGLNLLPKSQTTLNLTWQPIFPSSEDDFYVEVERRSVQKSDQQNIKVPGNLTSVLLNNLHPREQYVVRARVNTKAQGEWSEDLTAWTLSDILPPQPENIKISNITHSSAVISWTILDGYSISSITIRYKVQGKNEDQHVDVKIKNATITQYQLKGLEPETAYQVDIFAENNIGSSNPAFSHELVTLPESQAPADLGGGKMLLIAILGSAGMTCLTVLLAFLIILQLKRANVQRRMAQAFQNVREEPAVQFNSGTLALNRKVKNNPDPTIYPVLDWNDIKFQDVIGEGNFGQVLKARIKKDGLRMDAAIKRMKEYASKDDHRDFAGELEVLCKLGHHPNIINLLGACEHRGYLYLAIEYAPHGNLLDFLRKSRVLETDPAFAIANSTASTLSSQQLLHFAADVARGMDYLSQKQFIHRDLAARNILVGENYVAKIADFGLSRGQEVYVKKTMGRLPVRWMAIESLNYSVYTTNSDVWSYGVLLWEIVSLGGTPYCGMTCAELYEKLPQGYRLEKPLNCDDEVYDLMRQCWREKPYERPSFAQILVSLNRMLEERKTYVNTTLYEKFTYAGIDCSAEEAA
reported-metric: residual activity

{"molecule": "CC(C)N(CCC(=O)c1ccc2ccccc2c1)Cc1ccccc1", "data-value": "96.3%"}
{"molecule": "CCN(CC)C(=O)c1ccc(Nc2nc(OCC3CCCCC3)c3nc[nH]c3n2)cc1", "data-value": "95.4%"}
{"molecule": "CCCC(=O)Oc1ccc2[nH]c(C(=O)c3cc4ccccc4[nH]3)cc2c1", "data-value": "100%"}
{"molecule": "O=C(Nc1cccc(Nc2nccc(Nc3cccc(C(F)(F)F)c3)n2)c1)C1CC1", "data-value": "101%"}
{"molecule": "Cc1[nH]c(/C=C2\\C(=O)Nc3ccc(S(=O)(=O)N(C)c4cccc(Cl)c4)cc32)c(C)c1C(=O)N1CCN(C)CC1", "data-value": "90.8%"}
{"molecule": "Nc1ccc2ncnc(NCCc3ccc(Oc4ccccc4)cc3)c2c1", "data-value": "99%"}
{"molecule": "COc1ccc(COc2ccc(Cc3cnc(N)nc3N)cc2OC)cc1", "data-value": "101%"}
{"molecule": "O=C1NC(=O)c2c1c1c3ccccc3n3c1c1c2c2ccccc2n1C1CCC3O1", "data-value": "94.1%"}
{"molecule": "CCC(=O)Nc1ccc2ncnc(Nc3cccc(Br)c3)c2c1", "data-value": "91.2%"}
{"molecule": "CO[C@H]1CC2CC[C@@H](C)[C@@](O)(O2)C(=O)C(=O)N2CCCC[C@H]2C(=O)OC([C@H](C)C[C@@H]2CC[C@@H](O)[C@H](OC)C2)CC(=O)[C@H](C)/C=C(\\C)[C@@H](O)[C@@H](OC)C(=O)[C@H](C)C[C@H](C)/C=C/C=C/C=C/1C (stereo partly drawn)", "data-value": "97.6%"}
{"molecule": "CC#CC(=O)Nc1cc2c(Nc3ccc(F)c(Cl)c3)ncnc2cn1", "data-value": "99.7%"}
{"molecule": "CCN(CC)CCNC(=O)c1c(C)[nH]c(/C=C2\\C(=O)Nc3ccc(Cl)cc32)c1C", "data-value": "98.2%"}
{"molecule": "N#C/C(=C(/N)Sc1ccc(N)cc1)c1ccccc1C(F)(F)F", "data-value": "104%"}
{"molecule": "c1ccc(-c2n[nH]cc2-c2ccnc3ccccc23)nc1", "data-value": "98.8%"}
{"molecule": "c1ccc(-c2n[nH]c3c2oc2ccccc23)cc1", "data-value": "96.8%"}
{"molecule": "O=C1NC(=O)C(c2cn(CCCn3ccnc3)c3ccccc23)=C1Nc1ccccc1", "data-value": "92.3%"}
{"molecule": "O=c1cc(N2CCOCC2)oc2c1ccc1ccccc12", "data-value": "94.4%"}
{"molecule": "Oc1cccc(-c2nc(N3CCOCC3)c3oc4ncccc4c3n2)c1", "data-value": "87.7%"}

----------
biological target: LTK (human) (UniProt P29376); assay: radiometric filter-binding kinase assay, Kinase HotSpot; conditions: compound 0.5 µM; ATP 10 µM
Sequence (P29376 whole entry, looked up): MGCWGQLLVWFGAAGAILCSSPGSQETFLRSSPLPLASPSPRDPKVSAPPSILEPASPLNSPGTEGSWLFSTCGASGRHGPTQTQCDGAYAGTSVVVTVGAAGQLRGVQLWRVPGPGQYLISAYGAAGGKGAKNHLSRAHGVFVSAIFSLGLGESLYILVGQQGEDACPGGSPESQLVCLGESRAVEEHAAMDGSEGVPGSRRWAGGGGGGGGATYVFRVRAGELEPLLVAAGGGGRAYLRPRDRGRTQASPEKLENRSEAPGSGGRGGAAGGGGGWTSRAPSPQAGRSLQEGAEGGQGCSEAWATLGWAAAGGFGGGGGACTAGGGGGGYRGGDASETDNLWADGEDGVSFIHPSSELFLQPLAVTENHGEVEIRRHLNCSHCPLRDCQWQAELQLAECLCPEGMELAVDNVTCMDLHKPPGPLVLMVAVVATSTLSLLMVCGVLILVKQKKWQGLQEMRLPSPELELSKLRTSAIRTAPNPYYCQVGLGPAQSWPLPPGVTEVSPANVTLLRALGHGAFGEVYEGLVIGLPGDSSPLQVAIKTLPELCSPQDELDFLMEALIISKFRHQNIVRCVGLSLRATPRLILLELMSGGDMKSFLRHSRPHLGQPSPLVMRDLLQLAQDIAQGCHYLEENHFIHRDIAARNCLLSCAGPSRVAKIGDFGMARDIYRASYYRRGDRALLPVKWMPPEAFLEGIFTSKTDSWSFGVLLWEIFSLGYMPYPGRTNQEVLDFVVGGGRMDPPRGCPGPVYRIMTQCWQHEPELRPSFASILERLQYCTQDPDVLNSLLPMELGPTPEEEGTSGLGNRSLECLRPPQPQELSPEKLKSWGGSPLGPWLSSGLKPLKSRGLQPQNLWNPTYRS
We use 80% as the dividing line for residual activity: on or above the line is 1, below is 0.

{"substance-smiles": "Nc1cccc(-c2cc3c(Oc4cccc(O)c4)ncnc3[nH]2)c1", "assigned-label": 0}
{"substance-smiles": "CC[n+]1c(/C=C/N(C)c2ccccc2)n(-c2ccccc2)c2ccc(-c3nc4ccccc4s3)cc21", "assigned-label": 1}
{"substance-smiles": "N#C/C(=C(/N)Sc1ccc(N)cc1)c1ccccc1C(F)(F)F", "assigned-label": 1}
{"substance-smiles": "c1ccc(-c2n[nH]c3c2oc2ccccc23)cc1", "assigned-label": 1}
{"substance-smiles": "N#CC(C#N)=C(N)/C(C#N)=C/c1ccc(O)cc1", "assigned-label": 1}
{"substance-smiles": "Cc1ccc(S(=O)(=O)/C=C/C#N)cc1", "assigned-label": 1}
{"substance-smiles": "Oc1cccc(-c2nc(N3CCOCC3)c3oc4ncccc4c3n2)c1", "assigned-label": 1}
{"substance-smiles": "O=C(Nc1cccc(Nc2nccc(Nc3cccc(C(F)(F)F)c3)n2)c1)C1CC1", "assigned-label": 1}
{"substance-smiles": "CCOC(=O)c1c(C)[nH]c(/C=C2\\C(=O)Nc3ccccc32)c1C", "assigned-label": 0}
{"substance-smiles": "CCCC(=O)Oc1ccc2[nH]c(C(=O)c3cc4ccccc4[nH]3)cc2c1", "assigned-label": 1}
{"substance-smiles": "CCN(CC)CCNC(=O)c1c(C)[nH]c(/C=C2\\C(=O)Nc3ccc(F)cc32)c1C", "assigned-label": 0}

----------
molecular target: UniProt:Q9Y2U5; assay: radiometric filter-binding kinase assay, Kinase HotSpot; conditions: compound 0.5 µM; ATP 10 µM
Sequence (Q9Y2U5 whole entry, looked up): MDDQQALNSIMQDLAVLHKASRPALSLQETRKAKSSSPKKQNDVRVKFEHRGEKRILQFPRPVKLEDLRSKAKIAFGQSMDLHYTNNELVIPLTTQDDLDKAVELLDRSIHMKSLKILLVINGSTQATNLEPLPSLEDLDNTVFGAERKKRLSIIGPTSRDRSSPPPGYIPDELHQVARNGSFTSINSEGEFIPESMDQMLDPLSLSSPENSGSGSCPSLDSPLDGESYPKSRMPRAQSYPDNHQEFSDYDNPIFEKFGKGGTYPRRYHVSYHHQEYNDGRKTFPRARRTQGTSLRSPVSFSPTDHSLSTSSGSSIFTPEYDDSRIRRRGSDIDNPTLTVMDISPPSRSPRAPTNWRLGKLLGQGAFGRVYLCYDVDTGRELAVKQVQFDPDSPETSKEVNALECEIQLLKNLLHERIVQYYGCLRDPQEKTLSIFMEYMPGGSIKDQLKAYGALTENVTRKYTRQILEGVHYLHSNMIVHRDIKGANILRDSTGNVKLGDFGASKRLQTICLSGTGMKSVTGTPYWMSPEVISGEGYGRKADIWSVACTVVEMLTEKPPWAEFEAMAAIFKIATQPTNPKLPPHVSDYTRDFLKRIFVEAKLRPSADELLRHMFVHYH
Known residual activity of a selection of compounds

{"substance-smiles": "O=S(=O)(c1cccc2cnccc12)N1CCCNCC1", "residual activity": "77.8%"}
{"substance-smiles": "O=C1NC(=O)C(c2cn(CCCn3ccnc3)c3ccccc23)=C1Nc1ccccc1", "residual activity": "83.3%"}
{"substance-smiles": "COc1cc2ncnc(Nc3cccc(Cl)c3)c2cc1OC", "residual activity": "98.2%"}
{"substance-smiles": "CC(=O)c1ccc(N2CCOCC2)cc1O", "residual activity": "109%"}
{"substance-smiles": "CC#CC(=O)Nc1cc2c(Nc3ccc(F)c(Cl)c3)ncnc2cn1", "residual activity": "107%"}
{"substance-smiles": "Nc1ncnc2[nH]nc(Nc3ccc(F)cc3)c12", "residual activity": "95.6%"}
{"substance-smiles": "Nc1ncnc2c1c(-c1ccc(Oc3ccccc3)cc1)cn2C1CCCC1", "residual activity": "83.8%"}
{"substance-smiles": "CC[n+]1c(/C=C/N(C)c2ccccc2)n(-c2ccccc2)c2ccc(-c3nc4ccccc4s3)cc21", "residual activity": "90.3%"}
{"substance-smiles": "COc1ccc2c(c[n+](C)c3c4cc5c(cc4ccc23)OCO5)c1OC", "residual activity": "99.8%"}
{"substance-smiles": "Oc1cccc(-c2nc(N3CCOCC3)c3oc4ncccc4c3n2)c1", "residual activity": "103%"}
{"substance-smiles": "CCN(CC)CCNC(=O)c1c(C)[nH]c(/C=C2\\C(=O)Nc3ccc(Cl)cc32)c1C", "residual activity": "20.1%"}
{"substance-smiles": "CCN(CC)CCNC(=O)c1c(C)[nH]c(/C=C2\\C(=O)Nc3ccc(F)cc32)c1C", "residual activity": "51.9%"}
{"substance-smiles": "Nc1ccc2ncnc(NCCc3ccc(Oc4ccccc4)cc3)c2c1", "residual activity": "98.4%"}
{"substance-smiles": "c1ccc(-c2n[nH]cc2-c2ccnc3ccccc23)nc1", "residual activity": "91.2%"}
{"substance-smiles": "CNC(=O)c1cc(Oc2ccc(NC(=O)Nc3ccc(Cl)c(C(F)(F)F)c3)cc2)ccn1", "residual activity": "109%"}
{"substance-smiles": "N#CC(C#N)=C(N)/C(C#N)=C/c1ccc(O)cc1", "residual activity": "102%"}
{"substance-smiles": "Cc1[nH]c(/C=C2\\C(=O)Nc3ccc(S(=O)(=O)N(C)c4cccc(Cl)c4)cc32)c(C)c1C(=O)N1CCN(C)CC1", "residual activity": "68.5%"}
{"substance-smiles": "c1ccc(-c2n[nH]c3c2oc2ccccc23)cc1", "residual activity": "85.9%"}
{"substance-smiles": "O=C(Nc1cccc(Nc2nccc(Nc3cccc(C(F)(F)F)c3)n2)c1)C1CC1", "residual activity": "91.6%"}
{"substance-smiles": "CCCC(=O)Oc1ccc2[nH]c(C(=O)c3cc4ccccc4[nH]3)cc2c1", "residual activity": "81.7%"}

----------
target: CDK7 CCNH MNAT1 (human) (UniProt P50613+P51948+P51946); experiment: radiometric filter-binding kinase assay, Kinase HotSpot; conditions: compound 0.5 µM; ATP 10 µM
Sequence (P50613 whole entry, looked up): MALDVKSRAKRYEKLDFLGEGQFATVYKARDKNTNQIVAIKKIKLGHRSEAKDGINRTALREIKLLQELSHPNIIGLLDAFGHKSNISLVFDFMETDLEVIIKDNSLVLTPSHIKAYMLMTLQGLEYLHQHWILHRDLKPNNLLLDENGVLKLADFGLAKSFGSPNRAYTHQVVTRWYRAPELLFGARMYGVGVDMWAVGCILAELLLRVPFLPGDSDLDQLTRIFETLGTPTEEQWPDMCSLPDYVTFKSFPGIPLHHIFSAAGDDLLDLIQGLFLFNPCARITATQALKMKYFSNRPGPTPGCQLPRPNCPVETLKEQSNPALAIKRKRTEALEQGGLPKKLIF
Sequence (P51946 whole entry, looked up): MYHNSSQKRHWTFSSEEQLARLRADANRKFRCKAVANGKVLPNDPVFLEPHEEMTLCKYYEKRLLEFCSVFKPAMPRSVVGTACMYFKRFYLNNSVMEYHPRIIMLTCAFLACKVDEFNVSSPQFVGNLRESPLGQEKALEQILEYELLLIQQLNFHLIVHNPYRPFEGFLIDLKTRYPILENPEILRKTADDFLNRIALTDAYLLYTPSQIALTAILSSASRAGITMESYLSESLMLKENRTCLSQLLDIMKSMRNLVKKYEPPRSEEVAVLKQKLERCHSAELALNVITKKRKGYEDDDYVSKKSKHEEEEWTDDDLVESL
Sequence (P51948 whole entry, looked up): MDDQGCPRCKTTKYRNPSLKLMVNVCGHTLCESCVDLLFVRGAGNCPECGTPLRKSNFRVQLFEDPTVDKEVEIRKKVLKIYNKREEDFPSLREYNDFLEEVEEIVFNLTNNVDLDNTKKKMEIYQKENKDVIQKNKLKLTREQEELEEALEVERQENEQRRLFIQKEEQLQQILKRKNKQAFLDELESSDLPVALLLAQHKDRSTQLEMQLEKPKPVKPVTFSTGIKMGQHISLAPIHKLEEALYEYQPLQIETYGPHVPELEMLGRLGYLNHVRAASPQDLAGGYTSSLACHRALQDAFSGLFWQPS

{"substance-smiles": "Nc1ccc2ncnc(NCCc3ccc(Oc4ccccc4)cc3)c2c1", "test-target": "CDK7 CCNH MNAT1 (human) (UniProt P50613+P51948+P51946)", "residual activity, %": 99.3}
{"substance-smiles": "O=C(Nc1cccc(Nc2nccc(Nc3cccc(C(F)(F)F)c3)n2)c1)C1CC1", "test-target": "CDK7 CCNH MNAT1 (human) (UniProt P50613+P51948+P51946)", "residual activity, %": 92.6}
{"substance-smiles": "N#C/C(=C(/N)Sc1ccc(N)cc1)c1ccccc1C(F)(F)F", "test-target": "CDK7 CCNH MNAT1 (human) (UniProt P50613+P51948+P51946)", "residual activity, %": 100}
{"substance-smiles": "CCCC(=O)Oc1ccc2[nH]c(C(=O)c3cc4ccccc4[nH]3)cc2c1", "test-target": "CDK7 CCNH MNAT1 (human) (UniProt P50613+P51948+P51946)", "residual activity, %": 98.7}
{"substance-smiles": "CC(C)N(CCC(=O)c1ccc2ccccc2c1)Cc1ccccc1", "test-target": "CDK7 CCNH MNAT1 (human) (UniProt P50613+P51948+P51946)", "residual activity, %": 98}
{"substance-smiles": "O=c1cc(N2CCOCC2)oc2c1ccc1ccccc12", "test-target": "CDK7 CCNH MNAT1 (human) (UniProt P50613+P51948+P51946)", "residual activity, %": 98.2}
{"substance-smiles": "CC#CC(=O)Nc1cc2c(Nc3ccc(F)c(Cl)c3)ncnc2cn1", "test-target": "CDK7 CCNH MNAT1 (human) (UniProt P50613+P51948+P51946)", "residual activity, %": 101}
{"substance-smiles": "O=C1NC(=O)/C(=C/c2ccc3c(c2)OC(F)(F)O3)S1", "test-target": "CDK7 CCNH MNAT1 (human) (UniProt P50613+P51948+P51946)", "residual activity, %": 98.3}
{"substance-smiles": "CCN(CC)CCNC(=O)c1c(C)[nH]c(/C=C2\\C(=O)Nc3ccc(F)cc32)c1C", "test-target": "CDK7 CCNH MNAT1 (human) (UniProt P50613+P51948+P51946)", "residual activity, %": 73.4}
{"substance-smiles": "CCOC(=O)c1c(C)[nH]c(/C=C2\\C(=O)Nc3ccccc32)c1C", "test-target": "CDK7 CCNH MNAT1 (human) (UniProt P50613+P51948+P51946)", "residual activity, %": 96.8}
{"substance-smiles": "Oc1cccc(-c2nc(N3CCOCC3)c3oc4ncccc4c3n2)c1", "test-target": "CDK7 CCNH MNAT1 (human) (UniProt P50613+P51948+P51946)", "residual activity, %": 99.9}
